System: SN12C renal
Test details: NCI-60 one-dose screen, 48 h (100 = growth as untreated, 0 = no growth, -100 = all killed)
Condition context: 10 µM unless noted
Compounds without any hit were thinned out: in the full panel of roughly 83,000, 20% have a hit. Calls of active or inactive are those of the source. How the source made its calls: active means growth percent below 10; inactive means the rest.
Measurement label: growth

Please review the following examples before continuing.
[
  {
    "Entry smiles": "CCN1CCN(C(=O)[C@]23CCC(C)(C)C[C@@H]2C2=CC[C@@H]4[C@@]5(C)C/C(=C/c6ccncc6)C(=O)C(C)(C)[C@@H]5CC[C@@]4(C)[C@]2(C)CC3)CC1",
    "Target": "SN12C renal",
    "growth": "-70.1% (active)"
  },
  {
    "Entry smiles": "O=C(CI)Nc1ccc(O)c2ccccc12",
    "Target": "SN12C renal",
    "growth": "-34.9% (active)"
  },
  {
    "Entry smiles": "CNC(=O)c1cc(Oc2ccc3nc(NC(=O)Nc4ccc(Cl)cc4)sc3c2)ccn1",
    "Target": "SN12C renal",
    "growth": "62.3% (inactive)"
  }
]

Could you now consider this next compound?
Asked: Recorded growth for c1ccc2[nH]c(-c3ccc(Nc4nc(N5CCCCC5)nc(N5CCOCC5)n4)cc3)nc2c1 , please?
Given back: 52.4% (inactive)

---

Test system: NCI-H460 lung
Test details: NCI-60 one-dose screen, 48 h
Condition context: 10 µM unless noted
Compounds without any hit were thinned out: in the full panel of roughly 83,000, 20% have a hit. Active and inactive are the calls of the source. The calls were made as follows: active = growth percent below 10; inactive = the rest.
Form entry, call: pick from active, inactive

Asked: Entry CN1CCN(c2nc(-c3csc(-c4cccs4)n3)cc3ccccc23)CC1 : call = ?
Given back: active

Asked: Another molecule: Cn1cc(-c2nc(-c3c[nH]c4ncccc34)cs2)c2cc(Br)ccc21
Given back: inactive

Asked: Consider next the molecule Cc1ccc2[nH]cc(-c3nc(-c4cn(C)c5ncccc45)cs3)c2c1 in the same way.
Given back: inactive

---

Tested on: SF-539 CNS
Test details: NCI-60 one-dose screen, 48 h (100 = growth as untreated, 0 = no growth, -100 = all killed)
Condition context: 10 µM unless noted
The panel holds about 83,000 compounds, 20% with a hit somewhere; the sample as a whole holds those more often.
Measurement label: growth (%)
State the answer as a number, implicitly in %.

[
  {
    "Entry smiles": "COc1ccc2c(c1)C/C(=C\\c1cc(-c3ccc4c(c3)OCO4)n[nH]1)C2=O",
    "Target": "SF-539 CNS",
    "growth / %": 92.4
  },
  {
    "Entry smiles": "NCCn1cc(-c2nc(-c3c[nH]c4ncccc34)cs2)c2ccccc21",
    "Target": "SF-539 CNS",
    "growth / %": 90.2
  }
]

Asked: What value of growth on SF-539 CNS does COc1cnc2c(c1)C(=O)c1c-2n(CCCNC2=NCCS2)c(=O)c2cc([N+](=O)[O-])ccc12 have?
Given back: -66.5

Asked: Follow-up item: COc1cc(-c2nc(-c3ccccc3)c(-c3ccccc3)[nH]2)cc(OC)c1O
Given back: 0.938

---

Test system: T-47D breast
Test details: NCI-60 one-dose screen, 48 h
Condition context: 10 µM unless noted
The panel holds about 83,000 compounds, 20% with a hit somewhere; the sample as a whole holds those more often. Activity calls are given as the source filed them. Rule for the calls: active = growth percent below 10; inactive = the rest.
Please answer using one outcome listed in 1 (active), -1 (inactive)

Consider the worked cases shown below.
[
  {
    "Molecule": "C#CCn1c(C)cc(C)c(C#N)c1=O",
    "Assigned label": -1
  },
  {
    "Molecule": "CN1CCN(CCOc2ccc(-c3cnc4c(-c5cccc(F)c5)cnn4c3)cc2)CC1",
    "Assigned label": -1
  },
  {
    "Molecule": "COc1ccc(O)c(-c2cc(-c3ccc(Cl)cc3)c(C#N)c(=O)[nH]2)c1",
    "Assigned label": -1
  },
  {
    "Molecule": "CC(C)(C)CC(C)(C)c1ccc(OCCOCC[N+](C)(C)CC(=O)[O-])cc1",
    "Assigned label": -1
  },
  {
    "Molecule": "Clc1cc(Cl)cc(Nc2ccc3c(OCCCN4CCOCC4)cccc3n2)c1",
    "Assigned label": -1
  }
]

Asked: # fetch the recorded call for COc1ccc(-c2nc3ccccn3c2-c2nc3ccc(Cl)cc3[nH]2)cc1 here
Given back: -1

Asked: Again, but for CC1(C)C=CC[C@]2(C)[C@H]3CC[C@@H]4[C@H]5[C@H](C(=O)/C=C/c6cccnc6)CC[C@]5(CO)CC[C@@]4(C)[C@]3(C)CC[C@@H]12
Given back: 1

Asked: Consider next the molecule COc1cc2nc(Cl)nc(Nc3cccc(C(=O)/C=C/c4ccc(Cl)cc4)c3)c2cc1OC in the same way.
Given back: -1

Asked: Next entry: COc1ccc2c(c1)c(-c1nc(-c3c[nH]c4ncccc34)cs1)cn2C
Given back: -1

Asked: Next molecule up: N=c1c(S(=O)(=O)c2ccccc2)cc2c(=O)n3ccccc3nc2n1C1CCCC1
Given back: -1

Asked: Would you kindly repeat that for COc1cccc(-c2nn(-c3ccccc3)cc2-c2ccnc(NCCCN)c2)c1 ?
Given back: -1

Asked: // repeat for COC(=O)[C@]12CC[C@@H](C)[C@H](C)[C@@H]1C1=CC[C@@H]3[C@@]4(C)C(c5ncon5)=C[C@@](C)(CO)C4=CC[C@@]3(C)[C@]1(C)CC2 and report
Given back: 1
